- assay_text: soluble on expression in E. coli; label from the status in PepcDB or PDB records

sequence_text: MVFTPLDVRTIVSLPSCPKCNSEYTYEDGSLLICPECAHEWSADAGSADASDDVKVIKDSTGNVLQDGDTITVIKDLKVKGSSLVVKVGTKVKNIRLVDGDHDIDCKIDGIGAMKLKSEFVRKV
soluble on expression in E. coli: not soluble

sequence_text: MTGILDSVNQRTQLVGQNRLELLTFRLMGRQRYGINVFKVKEVLQCPKLTSMPNLHPLVKGIAHIRGHTVSVIDLSLAIGGRPTTDIDKCFVVIAEFNRTIQAFLVSSVERIINMHWEAILPPPDGAGKAHYLTAVTNIDNELVEILDVEKILAEIAPVDETMDSTIGEEIAQAEQEKPIVR
soluble on expression in E. coli: not soluble

Values were extracted from the DeepSol protein solubility set.
